Test: NCI Yeast Anticancer Drug Screen. Data for the bub3 strain (AID 167)
Details: S. cerevisiae bub3 mutant strain, at 50.0 µM, active compounds read high
Compounds without any hit were thinned out: in the full panel of roughly 79,000, 15% have a hit.
Quantity: growth inhibition (%)
// units = %; emit number, no label

In: Query (molecule): C[N+](C)(C)c1ccc2ccccc2n1 ; field requested: growth inhibition
Out: -8.7

In: Then this molecule: CCSCC1C(=O)C23C(O)C1CCC2C12COC3(O)C(O)C1C(C)(C)CCC2O (stereo unspecified)
Out: 2.4

In: Okay, and Nc1nc(Sc2ccccn2)ccc1[N+](=O)[O-] ?
Out: -12.1

In: Note, next up: COC(=O)C(=O)Cc1cccc(OC(C)=O)c1C(=O)OC
Out: 9.35

In: What do we get for CCCCCCCCCC/C=C/c1c(C)[nH]c2ccccc2c1=O ?
Out: -8.45

In: Then this molecule: O=[N+]([O-])c1cc(Cl)cc2c1-c1c(Cl)cc(Cl)cc1C2
Out: -6.25

* * *

For each of the compounds below, state its growth inhibition.
Assay: NCI Yeast Anticancer Drug Screen. Data for the sgs1 mgt1 strain (AID 161);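 note: 0% = growth of cultures given vehicle only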
Conditions: S. cerevisiae sgs1 mgt1 strain, at 50.0 µM, active compounds read high
About 79,000 compounds went through this panel and 15% of them were active in at least one assay; those are over-represented in the sample as a whole.
# output: bare number, implied unit %

In: For the compound shown here, O=[N+]([O-])c1ccc(-c2ccccc2CO)cc1 , give the reported growth inhibition.
Out: -25.6

In: Next entry: CN(C)CCC(/C=C/c1ccccc1)=N\Nc1ccccc1
Out: -11.9

In: Same question, COCCOCOC(C)(C)CCCCl this time
Out: 21.9

In: Further, for COc1ccc(C(O)(c2ccc(OC)cc2)c2ccccc2Cc2ccccc2OC)cc1 ?
Out: -22.3

In: Then what about the compound CCOc1ccc(C(=O)OC)cc1 ?
Out: 31

In: Try this compound next: N#Cc1ccccc1NC(=O)C(=O)C(C(=O)c1ccccc1-c1ccccc1)C1OC(=O)c2ccccc21 (configuration not stated)
Out: 11.7

In: Same for COC(=O)C1=C(O)/C(=C\c2ccccc2)NC1=O
Out: -12.9

In: Ok, now CC[N+](C)(C)CCOP(=O)(c1ccccc1)c1ccccc1
Out: -15.1

In: Proceed to O=C(Oc1c(Cl)c(Cl)c(Cl)c(Cl)c1Cl)Oc1c(Cl)c(Cl)c(Cl)c(Cl)c1Cl
Out: 19.1

In: Also Cc1c2c(=O)oc3ccc(Cl)cc3c2nn1-c1ccccc1 ?
Out: -11.8

In: Another compound to look at: Cn1ncc(C(=O)O)c1[N+](=O)[O-]
Out: 8.35

In: Could you do the same for COc1ccc(/C=C/c2cnc3ccccc3n2)cc1OC , please?
Out: 58.4

* * *

Test: NCI Yeast Anticancer Drug Screen. Data for the cln2 rad14 strain (AID 165);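 note: 0% = growth equal to vehicle treated cultures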
Details: S. cerevisiae cln2 rad14 strain, at 50.0 µM, active compounds read high
Compounds without any hit were thinned out: in the full panel of roughly 79,000, 15% have a hit.
Label TRUE for high-side growth inhibition (at or above 20%) and FALSE for low-side growth inhibition (below it).

In: Please indicate if the recorded growth inhibition for COc1ccc2c(c1O)-c1c(OC)c(OC)cc3c1[C@H](C2)[N+](C)(C)CC3 meets or exceeds 20%.
Out: FALSE

In: Let us now turn to CNC(=O)c1ccc(C(C)C)cc1
Out: FALSE

In: Queued: Cc1ccc(S(=O)(=O)Nc2ccc(O)cc2)cc1
Out: FALSE

In: Okay, and N#CCc1ccc(C(C#N)C(=O)CCC(=O)C(C#N)c2ccc(CC#N)cc2)cc1 (stereo unspecified) ?
Out: TRUE

In: What would you report for NS(=O)(=O)c1ccc(NC2=CC(=O)C(=O)c3ccccc32)cc1 ?
Out: FALSE
